Origin of the recorded values: the Kinase Knowledgebase extract (Sharma et al. 2016)

pIC50: −log10 of the molar value.
Endpoint: pIC50. System: PIK3CA (human) (UniProt P42336). Items follow.
Sequence (P42336 whole entry, looked up): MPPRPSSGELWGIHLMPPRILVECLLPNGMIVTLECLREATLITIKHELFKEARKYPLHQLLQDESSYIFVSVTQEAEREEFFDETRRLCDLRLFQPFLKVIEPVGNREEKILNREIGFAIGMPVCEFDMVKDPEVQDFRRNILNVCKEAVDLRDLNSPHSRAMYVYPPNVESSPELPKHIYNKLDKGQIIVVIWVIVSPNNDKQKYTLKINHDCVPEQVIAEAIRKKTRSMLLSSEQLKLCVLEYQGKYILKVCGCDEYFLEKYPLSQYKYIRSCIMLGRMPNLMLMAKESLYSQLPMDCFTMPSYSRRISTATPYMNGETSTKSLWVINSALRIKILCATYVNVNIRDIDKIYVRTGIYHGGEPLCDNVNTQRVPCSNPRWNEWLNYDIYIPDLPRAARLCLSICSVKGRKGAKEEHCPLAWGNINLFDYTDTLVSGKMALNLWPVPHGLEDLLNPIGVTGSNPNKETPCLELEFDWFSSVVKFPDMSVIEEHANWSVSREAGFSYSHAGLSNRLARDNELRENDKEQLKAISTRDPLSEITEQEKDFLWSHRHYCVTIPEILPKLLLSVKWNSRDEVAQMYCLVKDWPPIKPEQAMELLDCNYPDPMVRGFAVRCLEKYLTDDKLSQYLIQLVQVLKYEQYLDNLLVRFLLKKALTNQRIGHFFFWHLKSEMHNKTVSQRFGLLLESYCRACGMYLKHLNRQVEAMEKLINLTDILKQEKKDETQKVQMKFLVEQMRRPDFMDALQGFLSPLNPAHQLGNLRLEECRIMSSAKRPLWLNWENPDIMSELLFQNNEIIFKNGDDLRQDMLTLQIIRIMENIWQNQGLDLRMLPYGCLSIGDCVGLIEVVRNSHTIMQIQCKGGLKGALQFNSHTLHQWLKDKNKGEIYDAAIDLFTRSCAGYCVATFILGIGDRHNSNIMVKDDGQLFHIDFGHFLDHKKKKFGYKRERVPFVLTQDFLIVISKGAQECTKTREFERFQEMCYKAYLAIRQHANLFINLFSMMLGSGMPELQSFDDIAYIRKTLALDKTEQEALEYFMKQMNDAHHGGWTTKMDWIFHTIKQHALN

Below: 5 molecules and their reported pIC50.
CNc1nc(C)c2cc(-c3ccc(F)c(O)c3)ccc2n1 = 6.00 to 6.30
Cc1nc(Nc2cccnc2)nc2ccc(-c3cccc(O)c3)cc12 = ≥ 7.00
CNc1nc(C)c2cc(-c3cnc4[nH]ccc4c3)ccc2n1 = 6.00 to 6.30
CNc1nc(C)c2cc(-c3cc(O)cc(F)c3)ccc2n1 = 6.30 to 7.00
CNc1nc(C)c2cc(-c3ccc(O)c(Cl)c3)ccc2n1 = 6.00 to 6.30

Let's switch to this molecule now.
Query for PIK3CA (human) (UniProt P42336): what pIC50 does the record show for `Cc1nc(N)nc2ccc(-c3cnc4[nH]ccc4c3)cc12` ? 6.00 to 6.30

* * *

targetUnderTest: PIK3CB (Human)
pIC50: −log10 of the molar value.
measuredAttribute: pIC50

Give PIK3CB (Human) pIC50 for `Cc1nc(N)nc2ccc(-c3cccc(O)c3)cc12` 6.30 to 7.00

* * *

targetUnderTest: PIK3CD (Human) (UniProt O00329)
Sequence (O00329 whole entry, looked up): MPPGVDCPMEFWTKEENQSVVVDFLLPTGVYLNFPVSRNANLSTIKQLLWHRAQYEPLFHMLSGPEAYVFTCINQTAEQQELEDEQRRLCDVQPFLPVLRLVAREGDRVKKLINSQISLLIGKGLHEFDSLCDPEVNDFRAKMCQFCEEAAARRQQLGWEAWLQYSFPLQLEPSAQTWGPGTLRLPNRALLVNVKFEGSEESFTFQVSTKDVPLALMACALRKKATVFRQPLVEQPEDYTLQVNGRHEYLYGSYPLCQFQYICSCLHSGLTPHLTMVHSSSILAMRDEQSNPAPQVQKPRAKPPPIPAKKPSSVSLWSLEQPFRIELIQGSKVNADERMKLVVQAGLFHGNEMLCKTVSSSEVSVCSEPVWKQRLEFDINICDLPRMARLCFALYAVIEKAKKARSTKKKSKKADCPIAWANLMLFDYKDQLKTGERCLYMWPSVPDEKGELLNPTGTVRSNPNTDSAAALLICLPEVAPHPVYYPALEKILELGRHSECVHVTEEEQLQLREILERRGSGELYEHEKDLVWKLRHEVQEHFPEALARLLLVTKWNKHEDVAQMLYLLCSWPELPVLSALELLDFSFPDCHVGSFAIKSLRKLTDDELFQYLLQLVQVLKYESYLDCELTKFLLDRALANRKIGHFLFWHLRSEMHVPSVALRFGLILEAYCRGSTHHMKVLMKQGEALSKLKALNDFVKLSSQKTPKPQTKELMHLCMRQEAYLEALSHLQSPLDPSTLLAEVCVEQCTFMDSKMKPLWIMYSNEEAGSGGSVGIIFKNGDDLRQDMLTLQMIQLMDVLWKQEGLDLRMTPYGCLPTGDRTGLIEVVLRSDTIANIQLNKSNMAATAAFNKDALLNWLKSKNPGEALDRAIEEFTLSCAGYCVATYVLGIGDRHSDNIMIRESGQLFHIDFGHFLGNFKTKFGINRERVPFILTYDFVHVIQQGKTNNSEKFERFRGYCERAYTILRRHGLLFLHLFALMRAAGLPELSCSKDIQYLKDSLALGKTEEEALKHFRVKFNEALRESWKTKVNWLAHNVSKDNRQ
Reported IC50 values are given for each entry in this list.

CNc1nc(C)c2cc(-c3cccc(O)c3)ccc2n1 = 100 to 500 nM
Cc1nc(Nc2cccnc2)nc2ccc(-c3cccc(O)c3)cc12 = ≤ 100 nM

Short answer please: IC50, PIK3CD (Human) (UniProt O00329), entry `Cc1nc(N)nc2ccc(-c3cccc(O)c3)cc12` ≤ 100 nM
